Here, each record is paired with measured pIC50 data.
- system.tested: human Cereblon WT GST-tagged protein (Homo sapiens, UniProt Q96SW2)
- Construct: purchased CISBIO 64BDCRBNPEH
- Sequence (Q96SW2 whole entry): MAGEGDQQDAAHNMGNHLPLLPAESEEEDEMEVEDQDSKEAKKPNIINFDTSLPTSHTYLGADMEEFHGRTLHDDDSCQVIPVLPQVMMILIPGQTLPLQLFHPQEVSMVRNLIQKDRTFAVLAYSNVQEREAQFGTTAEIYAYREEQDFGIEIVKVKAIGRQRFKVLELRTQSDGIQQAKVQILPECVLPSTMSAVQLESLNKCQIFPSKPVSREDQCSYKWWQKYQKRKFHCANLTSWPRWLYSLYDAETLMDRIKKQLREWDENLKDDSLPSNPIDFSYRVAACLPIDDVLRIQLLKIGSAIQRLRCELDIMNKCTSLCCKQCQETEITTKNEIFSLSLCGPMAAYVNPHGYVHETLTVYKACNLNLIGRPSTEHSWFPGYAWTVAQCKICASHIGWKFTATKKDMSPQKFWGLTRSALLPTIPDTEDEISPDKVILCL
- experimental.details: CRBN binding, HTRF CEREBLON BINDING kit
- conditions: CRBN binding, HTRF CEREBLON BINDING kit
pIC50: −log10 of the molar value.

Some entries whose results are on file:
compound	pIC50
CCc1cc2c(cc1N1CCC(N3CCN(Cc4ccnc(C5CCC(=O)NC5=O)c4)CC3)CC1)C(C)(C)c1[nH]c3cc(C#N)ccc3c1C2=O (stereo not drawn)	5.72 to 6.00
Cc1nc2c(F)cc(-c3nc(Nc4ccc(N5CCC(N6CCN(Cc7ccc(N8CCC(=O)NC8=O)cn7)CC6)CC5)cn4)ncc3F)cc2n1C(C)C	6.00 to 6.30
CN(Cc1ccc(N2CCC(=O)NC2=O)nc1)C1CCN(c2ccc(-c3cc(F)c4c(c3)C(=O)N(C(C(=O)Nc3nccs3)c3ncn5c3CCC5)C4)cc2)CC1 (stereo not drawn)	5.72 to 6.00
CCc1cc2c(cc1N1CCN(Cc3ccc(N4CCC(=O)NC4=O)cn3)CC1)C(C)(C)c1[nH]c3cc(C#N)ccc3c1C2=O	5.72 to 6.00
COc1cc(N2CCC(N(C)Cc3ccc(N4CCC(=O)NC4=O)cn3)CC2)c(C)cc1Nc1ncc(Br)c(Nc2ccc3nccnc3c2P(C)(C)=O)n1	6.00 to 6.30
COc1cc(N2CCN(Cc3cncc(N4CCC(=O)NC4=O)c3)CC2)ccc1Nc1ncc(Cl)c(Nc2ccccc2P(C)(C)=O)n1	6.00 to 6.30

Record request: pIC50 value, item `O=C1CCN(c2ccc(CN3CCN(C4CCN(c5ccc(Nc6ncc7nc(Nc8ccccc8)n(C8CCCC8)c7n6)cc5)CC4)CC3)cc2)C(=O)N1`
6.00 to 6.30

Record request: pIC50 value, item `CN(C)C(=O)c1cc2cnc(Nc3ccc(N4CCN(Cc5ccc(N6CCC(=O)NC6=O)cc5)CC4)cn3)nc2n1C1CCCC1`
6.00 to 6.30

Record request: pIC50 value, item O=C1CCN(c2ccc(CN3CCN(C4CCN(c5ccc(-c6cc(F)c7c(c6)C(=O)N(C(C(=O)Nc6nccs6)c6ncn8c6CCC8)C7)cc5)CC4(F)F)CC3)cc2)C(=O)N1 (stereo not drawn)
5.72 to 6.00

Record request: pIC50 value, item COc1cc(N2CCC(N3CCN(Cc4ccc(C5CCC(=O)NC5=O)cn4)CC3)CC2)ccc1Nc1ncc(Cl)c(Nc2ccccc2P(C)(C)=O)n1 (stereo not drawn)
6.00 to 6.30

Record request: pIC50 value, item `O=C1CCN(c2cccc(CN3CCC(N4CCN(c5ccc6c(c5)nc(NC(=O)c5cccc(C(F)(F)F)c5)n6[C@H]5CC[C@@H](CO)CC5)CC4)CC3)c2)C(=O)N1`
5.72 to 6.00

Record request: pIC50 value, item `Nc1nnc(-c2ccccc2O)cc1N1CCN(Cc2ccc(N3CCC(=O)NC3=O)cn2)CC1`
6.00 to 6.30
